Values were extracted from ChEMBL document CHEMBL1641550.

Test system: A549
Experiment: Cytotoxicity against human A549 cells after 48 hrs by MTT assay
Assay type: functional, cell-based
Conditions: A549, 48 h
Property: IC50 (µM)
One number for each entry, in µM.

// solved cases for IC50 follow
C=C(C)[C@@H]1CC[C@]2(COC(c3ccccc3)(c3ccccc3)c3ccccc3)CC[C@]3(C)[C@H](CC[C@@H]4[C@@](C)(CC(=O)O)[C@H](C(C)(C)C(=O)O)CC[C@]43C)[C@@H]12	136
C=C(C)[C@@H]1CC[C@]2(C(=O)O)CC[C@]3(C)[C@H](CC[C@@H]4[C@@]5(C)[C@H](C(=O)OC)[C@H](OC(C)=O)C(C)(C)[C@@H]5CC[C@]43C)[C@@H]12	0.89

Tell us which IC50 value is on record for C=C(C)[C@@H]1CC[C@]2(COC(c3ccccc3)(c3ccccc3)c3ccccc3)CC[C@]3(C)[C@H](CC[C@@H]4[C@@]5(C)[C@H](C(=O)OC)[C@H](OC(C)=O)C(C)(C)[C@@H]5CC[C@]43C)[C@@H]12
892

---

Test system: A549
Experiment: Cytotoxicity against human A549 cells after 48 hrs by MTT assay
Type: functional, cell-based
Settings: A549, 48 h
Structures can show the parent of a compound that is named as a salt.
Property: IC50
Remember to follow the number with its unit.

// solved cases for IC50 follow
C=C(C)[C@@H]1CC[C@]2(C=O)CC[C@]3(C)[C@H](CC[C@@H]4[C@@]5(C)[C@H](C(=O)OC)[C@H](OC(C)=O)C(C)(C)[C@@H]5CC[C@]43C)[C@@H]12	194 µM
C=C(C)[C@@H]1CC[C@]2(COC(c3ccccc3)(c3ccccc3)c3ccccc3)CC[C@]3(C)[C@H](CC[C@@H]4[C@@](C)(CC(=O)OC)[C@H](C(C)(C)C(=O)OC)CC[C@]43C)[C@@H]12	996 µM

I would be grateful if you could provide IC50 for each of the following entries.
1. C=C(C)[C@@H]1CC[C@]2(COC(c3ccccc3)(c3ccccc3)c3ccccc3)CC[C@]3(C)[C@H](CC[C@@H]4[C@@]5(C)[C@H](C(=O)OC)[C@H](O)C(C)(C)[C@@H]5CC[C@]43C)[C@@H]12
2. COc1cccc2c1C(=O)c1c(O)c3c(c(O)c1C2=O)C[C@@](O)(C(=O)CO)C[C@@H]3O[C@H]1C[C@H](N)[C@H](O)[C@H](C)O1 [DOXORUBICIN HYDROCHLORIDE]
3. C=C(C)[C@@H]1CC[C@]2(C(=O)O)CC[C@]3(C)[C@H](CC[C@@H]4[C@@]5(C)[C@H](C(=O)O)[C@H](O)C(C)(C)[C@@H]5CC[C@]43C)[C@@H]12 [EPICEANOTHIC ACID]
4. C=C(C)[C@@H]1CC[C@]2(CO)CC[C@]3(C)[C@H](CC[C@@H]4[C@@]5(C)[C@H](C(=O)OC)[C@H](OC(C)=O)C(C)(C)[C@@H]5CC[C@]43C)[C@@H]12

["770 µM", "0.54 µM", "16.8 µM", "62.9 µM"]

---

Biological target: Glycogen phosphorylase, muscle form (Oryctolagus cuniculus)
Sequence (P00489 whole entry): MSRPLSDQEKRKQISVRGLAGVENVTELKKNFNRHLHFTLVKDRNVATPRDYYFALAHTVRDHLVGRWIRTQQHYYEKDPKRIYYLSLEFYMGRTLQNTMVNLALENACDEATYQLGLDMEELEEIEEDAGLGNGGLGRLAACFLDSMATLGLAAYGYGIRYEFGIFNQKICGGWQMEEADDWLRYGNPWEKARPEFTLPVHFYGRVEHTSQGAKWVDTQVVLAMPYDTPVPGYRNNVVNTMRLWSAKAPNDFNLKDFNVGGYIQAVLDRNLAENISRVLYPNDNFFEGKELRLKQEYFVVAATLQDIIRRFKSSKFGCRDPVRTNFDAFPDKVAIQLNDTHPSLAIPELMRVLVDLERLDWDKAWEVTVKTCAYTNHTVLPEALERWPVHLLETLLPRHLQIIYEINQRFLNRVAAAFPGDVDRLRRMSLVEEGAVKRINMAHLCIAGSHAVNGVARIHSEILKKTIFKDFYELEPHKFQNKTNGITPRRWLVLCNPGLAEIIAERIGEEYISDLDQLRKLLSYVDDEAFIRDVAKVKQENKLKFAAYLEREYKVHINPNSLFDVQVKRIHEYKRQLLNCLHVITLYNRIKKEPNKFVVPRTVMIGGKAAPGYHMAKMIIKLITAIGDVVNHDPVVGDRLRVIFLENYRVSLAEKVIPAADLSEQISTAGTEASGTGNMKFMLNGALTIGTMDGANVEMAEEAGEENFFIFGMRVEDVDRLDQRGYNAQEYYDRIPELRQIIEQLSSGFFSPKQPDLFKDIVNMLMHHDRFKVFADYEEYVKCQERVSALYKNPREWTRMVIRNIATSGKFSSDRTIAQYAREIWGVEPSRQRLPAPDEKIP
Test: Inhibition of rabbit muscle glycogen phosphorylase a
Details: read-out: IC50
So I've got a bunch of compounds here, and I need their log10(IC50) values.
Kindly note that the scale is log10 and the underlying IC50 is in µM.

// solved cases for log10(IC50) follow
C=C(C)[C@@H]1CC[C@]2(COC(c3ccccc3)(c3ccccc3)c3ccccc3)CC[C@]3(C)[C@H](CC[C@@H]4[C@@](C)(CC(=O)O)[C@H](C(C)(C)C(=O)O)CC[C@]43C)[C@@H]12	-0.68
C=C(C)[C@@H]1CC[C@]2(COC(c3ccccc3)(c3ccccc3)c3ccccc3)CC[C@]3(C)[C@H](CC[C@@H]4[C@@](C)(CC(=O)OC)[C@H](C(C)(C)C(=O)OC)CC[C@]43C)[C@@H]12	0.46

I would be grateful if you could provide log10(IC50) for each of the following entries.
1. C=C(C)[C@@H]1CC[C@]2(C=O)CC[C@]3(C)[C@H](CC[C@@H]4[C@@]5(C)[C@H](C(=O)OC)[C@H](OC(C)=O)C(C)(C)[C@@H]5CC[C@]43C)[C@@H]12
2. C=C(C)[C@@H]1CC[C@]2(C(=O)O)CC[C@]3(C)[C@H](CC[C@@H]4[C@@]5(C)[C@H](C(=O)OC)[C@H](OC(C)=O)C(C)(C)[C@@H]5CC[C@]43C)[C@@H]12

1. 1.73
2. 1.67

Tell us which log10(IC50) value is on record for C=C(C)[C@@H]1CC[C@]2(COC(c3ccccc3)(c3ccccc3)c3ccccc3)CC[C@]3(C)[C@H](CC[C@@H]4[C@@]5(C)[C@H](C(=O)OC)[C@H](O)C(C)(C)[C@@H]5CC[C@]43C)[C@@H]12
1.30

---

Target: Glycogen phosphorylase, muscle form (Oryctolagus cuniculus)
Test: Inhibition of rabbit muscle glycogen phosphorylase a
Conditions: read-out: IC50
So I've got a bunch of molecules here, and I need their IC50 values.
One number for each entry, in µM.

// solved cases for IC50 follow
C=C(C)[C@@H]1CC[C@]2(CO)CC[C@]3(C)[C@H](CC[C@@H]4[C@@]5(C)CC[C@H](O)C(C)(C)[C@@H]5CC[C@]43C)[C@@H]12	41.5
C=C(C)[C@@H]1CC[C@]2(COC(c3ccccc3)(c3ccccc3)c3ccccc3)CC[C@]3(C)[C@H](CC[C@@H]4[C@@]5(C)[C@H](C(=O)OC)[C@H](OC(C)=O)C(C)(C)[C@@H]5CC[C@]43C)[C@@H]12	15.2

For the next question, use this molecule.
Tell us which IC50 value is on record for C=C(C)[C@@H]1CC[C@]2(C(=O)O)CC[C@]3(C)[C@H](CC[C@@H]4[C@@]5(C)[C@H](C(=O)O)[C@H](O)C(C)(C)[C@@H]5CC[C@]43C)[C@@H]12 [EPICEANOTHIC ACID]
194
